Exercise: state measured Bliss excess for each of the compounds provided.
# System: Daoy (Other Solid Carcinomas)
# test summary: Bliss excess, mean over the matrix (fraction); higher = more synergy
Give your answer as a number; write no unit.

# get_value(readout='Bliss excess', item= COc1cccc(OCCCN)c1-c1cc(Nc2cnc(C#N)cn2)n[nH]1 [Prexasertib] + C[C@@H]1COCCN1C2=NC(=NC(=C2)C3(CC3)[S@](=N)(=O)C)C4=C5C=CNC5=NC=C4 [AZD6738] (first compound max 1 µM, 7x7, partner max 10 µM) )
0.0032

# get_value(readout='Bliss excess', item= CC1(C)CCC(CN2CCN(c3ccc(C(=O)NS(=O)(=O)c4ccc(NCC5CCOCC5)c([N+](=O)[O-])c4)c(Oc4cnc5[nH]ccc5c4)c3)CC2)=C(c2ccc(Cl)cc2)C1 [Venetoclax] + CN(C)CCCOc1ccc(-c2ccc3ncc4c(c3c2)n(C2CCOCC2)c(=O)n4C)cn1 [AZD0156] (first compound max 1 µM, 7x7, partner max 1 µM) )
-0.0076

---

Exercise: state measured Bliss excess for each of the compounds provided.
# Tested on: SNU-5 (Gastric Carcinoma)
# test summary: Bliss excess, mean over the matrix (fraction); higher = more synergy
Give your answer as a number; write no unit.

# get_value(readout='Bliss excess', item= COc1cc2c(cc1OCCCCCOc1cc3c(cc1OC)C(=O)N1C=C(C)C[C@H]1C=N3)N=C[C@@H]1CC(C)=CN1C2=O [SG3199] + O=C(c1cc(Cc2n[nH]c(=O)c3ccccc23)ccc1F)N1CCN(C(=O)C2CC2)CC1 [Olaparib] (first compound max 0.001 µM, 7x7, partner max 10 µM) )
-0.0105

# get_value(readout='Bliss excess', item= CC1(C)CCC(CN2CCN(c3ccc(C(=O)NS(=O)(=O)c4ccc(NCC5CCOCC5)c([N+](=O)[O-])c4)c(Oc4cnc5[nH]ccc5c4)c3)CC2)=C(c2ccc(Cl)cc2)C1 [Venetoclax] + Cc1cc2ncnn2cc1Nc1ncc2c(n1)n(C1CCOCC1)c(=O)n2C [AZD7648] (first compound max 1 µM, 7x7, partner max 10 µM) )
-0.0063

# get_value(readout='Bliss excess', item= Cc1cc2ncnn2cc1Nc1ncc2c(n1)n(C1CCOCC1)c(=O)n2C [AZD7648] + O=C(c1cc(Cc2n[nH]c(=O)c3ccccc23)ccc1F)N1CCN(C(=O)C2CC2)CC1 [Olaparib] (first compound max 10 µM, 7x7, partner max 10 µM) )
-0.0316

# get_value(readout='Bliss excess', item= Cc1cc2ncnn2cc1Nc1ncc2c(n1)n(C1CCOCC1)c(=O)n2C [AZD7648] + CN(C)CCCOc1ccc(-c2ccc3ncc4c(c3c2)n(C2CCOCC2)c(=O)n4C)cn1 [AZD0156] (first compound max 10 µM, 7x7, partner max 1 µM) )
0.0166

# get_value(readout='Bliss excess', item= CC(=O)c1c(C)c2cnc(Nc3ccc(N4CCNCC4)cn3)nc2n(C2CCCC2)c1=O [Palbociclib] + CN(CC[C@H](CSC1=CC=CC=C1)NC2=C(C=C(C=C2)S(=O)(=O)NC(=O)C3=CC=C(C=C3)N4CCC(CC4)[C@H](C5=CC=CC=C5C6=CC=C(C=C6)Cl)O)S(=O)(=O)C(F)(F)F)CCO [AZD4320] (first compound max 10 µM, 7x7, partner max 1 µM) )
-0.0446

# get_value(readout='Bliss excess', item= CN(CCO)CC[C@H](CSc1ccccc1)Nc1ccc(S(=O)(=O)NC(=O)c2ccc(N3CCC([C@@H](O)c4ccccc4-c4ccc(Cl)cc4)CC3)cc2)cc1S(=O)(=O)C(F)(F)F [AZD4320] + Cn1cnc2c(F)c(Nc3ccc(Br)cc3Cl)c(C(=O)NOCCO)cc21 [Selumetinib] (first compound max 1 µM, 7x7, partner max 3 µM) )
0.118

# get_value(readout='Bliss excess', item= COc1cccc2c1C(=O)c1c(O)c3c(c(O)c1C2=O)C[C@@](O)(C(=O)CO)C[C@@H]3O[C@H]1C[C@H](N)[C@H](O)[C@H](C)O1 [Doxorubicin] + Cc1cc2ncnn2cc1Nc1ncc2c(n1)n(C1CCOCC1)c(=O)n2C [AZD7648] (first compound max 1 µM, 7x7, partner max 10 µM) )
0.007

---

# Test system: HuP-T4 (Pancreatic Carcinoma)
# test summary: combination Emax (second highest fraction inhibited in the dose matrix, 72 h); higher = more inhibition; extreme values may be limits of the assay
Exercise: state measured combination Emax for each of the compounds provided.
Give your answer as a number; write no unit.

Give combination Emax (HuP-T4 (Pancreatic Carcinoma)) of the following compound: Cn1cnc2c(F)c(Nc3ccc(Br)cc3Cl)c(C(=O)NOCCO)cc21 [Selumetinib] + CC(C)n1c(=O)n(C)c2cnc3cc(F)c(-c4ccc(OCCCN5CCCCC5)nc4)cc3c21 [AZD1390] (first compound max 10 µM, 7x7, partner max 0.3 µM)
0.293

Give combination Emax (HuP-T4 (Pancreatic Carcinoma)) of the following compound: CN(CCO)CC[C@H](CSc1ccccc1)Nc1ccc(S(=O)(=O)NC(=O)c2ccc(N3CCC([C@@H](O)c4ccccc4-c4ccc(Cl)cc4)CC3)cc2)cc1S(=O)(=O)C(F)(F)F [AZD4320] + C[C@@H]1COCCN1C2=NC(=NC(=C2)C3(CC3)[S@](=N)(=O)C)C4=C5C=CNC5=NC=C4 [AZD6738] (first compound max 1 µM, 7x7, partner max 10 µM)
0.621

Give combination Emax (HuP-T4 (Pancreatic Carcinoma)) of the following compound: Cc1c2c(nn1C)CSCc1cc(n(C)n1)CSc1cc(c3ccccc3c1)OCCCc1c(C(=O)O)n(C)c3c-2c(Cl)ccc13 [AZD5991] + Cc1cc2ncnn2cc1Nc1ncc2c(n1)n(C1CCOCC1)c(=O)n2C [AZD7648] (first compound max 1 µM, 7x7, partner max 10 µM)
0.325

Give combination Emax (HuP-T4 (Pancreatic Carcinoma)) of the following compound: Cc1cc2ncnn2cc1Nc1ncc2c(n1)n(C1CCOCC1)c(=O)n2C [AZD7648] + C[C@@H]1COCCN1C2=NC(=NC(=C2)C3(CC3)[S@](=N)(=O)C)C4=C5C=CNC5=NC=C4 [AZD6738] (first compound max 10 µM, 7x7, partner max 10 µM)
0.358

Give combination Emax (HuP-T4 (Pancreatic Carcinoma)) of the following compound: COc1cccc(OCCCN)c1-c1cc(Nc2cnc(C#N)cn2)n[nH]1 [Prexasertib] + Cc1cc2ncnn2cc1Nc1ncc2c(n1)n(C1CCOCC1)c(=O)n2C [AZD7648] (first compound max 1 µM, 7x7, partner max 10 µM)
0.839

Give combination Emax (HuP-T4 (Pancreatic Carcinoma)) of the following compound: CC1(C)CCC(CN2CCN(c3ccc(C(=O)NS(=O)(=O)c4ccc(NCC5CCOCC5)c([N+](=O)[O-])c4)c(Oc4cnc5[nH]ccc5c4)c3)CC2)=C(c2ccc(Cl)cc2)C1 [Venetoclax] + Cc1cc2ncnn2cc1Nc1ncc2c(n1)n(C1CCOCC1)c(=O)n2C [AZD7648] (first compound max 1 µM, 7x7, partner max 10 µM)
0.202

Give combination Emax (HuP-T4 (Pancreatic Carcinoma)) of the following compound: CN(CCO)CC[C@H](CSc1ccccc1)Nc1ccc(S(=O)(=O)NC(=O)c2ccc(N3CCC([C@@H](O)c4ccccc4-c4ccc(Cl)cc4)CC3)cc2)cc1S(=O)(=O)C(F)(F)F [AZD4320] + CN(C)CCCOc1ccc(-c2ccc3ncc4c(c3c2)n(C2CCOCC2)c(=O)n4C)cn1 [AZD0156] (first compound max 1 µM, 7x7, partner max 1 µM)
0.127

Give combination Emax (HuP-T4 (Pancreatic Carcinoma)) of the following compound: COc1nnc2ccc(N3CCC(c4ccc(OCCN5CCN(C)C(=O)[C@H]5C)cc4)CC3)nn12 [AZD5153] + CN(CC[C@H](CSC1=CC=CC=C1)NC2=C(C=C(C=C2)S(=O)(=O)NC(=O)C3=CC=C(C=C3)N4CCC(CC4)[C@H](C5=CC=CC=C5C6=CC=C(C=C6)Cl)O)S(=O)(=O)C(F)(F)F)CCO [AZD4320] (first compound max 1 µM, 7x7, partner max 1 µM)
0.479

Give combination Emax (HuP-T4 (Pancreatic Carcinoma)) of the following compound: COc1cc2ncnc(Nc3ccc(F)c(Cl)c3)c2cc1OCCCN1CCOCC1 [Gefitinib] + CC(C)n1c(=O)n(C)c2cnc3cc(F)c(-c4ccc(OCCCN5CCCCC5)nc4)cc3c21 [AZD1390] (first compound max 10 µM, 7x7, partner max 0.3 µM)
0.178

Give combination Emax (HuP-T4 (Pancreatic Carcinoma)) of the following compound: COc1cccc(OCCCN)c1-c1cc(Nc2cnc(C#N)cn2)n[nH]1 [Prexasertib] + CCc1c2c(nc3ccc(O)cc13)-c1cc3c(c(=O)n1C2)COC(=O)[C@]3(O)CC [SN-38] (first compound max 1 µM, 7x7, partner max 0.3 µM)
0.938

Give combination Emax (HuP-T4 (Pancreatic Carcinoma)) of the following compound: Cc1cc2ncnn2cc1Nc1ncc2c(n1)n(C1CCOCC1)c(=O)n2C [AZD7648] + C=CCn1c(=O)c2cnc(Nc3ccc(N4CCN(C)CC4)cc3)nc2n1-c1cccc(C(C)(C)O)n1 [AZD1775] (first compound max 10 µM, partner max 1 µM)
0.288

Give combination Emax (HuP-T4 (Pancreatic Carcinoma)) of the following compound: CN(C)CCCOc1ccc(-c2ccc3ncc4c(c3c2)n(C2CCOCC2)c(=O)n4C)cn1 [AZD0156] + C[C@@H]1COCCN1C2=NC(=NC(=C2)C3(CC3)[S@](=N)(=O)C)C4=C5C=CNC5=NC=C4 [AZD6738] (first compound max 1 µM, 7x7, partner max 10 µM)
0.46

Give combination Emax (HuP-T4 (Pancreatic Carcinoma)) of the following compound: CC1(C)CCC(CN2CCN(c3ccc(C(=O)NS(=O)(=O)c4ccc(NCC5CCOCC5)c([N+](=O)[O-])c4)c(Oc4cnc5[nH]ccc5c4)c3)CC2)=C(c2ccc(Cl)cc2)C1 [Venetoclax] + Cn1cnc2c(F)c(Nc3ccc(Br)cc3Cl)c(C(=O)NOCCO)cc21 [Selumetinib] (first compound max 1 µM, 7x7, partner max 3 µM)
0.352

Reference for the values: the supplement of paper PMC11061612
